From: patent US9951035B2

experiment: in vivo; conditions: male, CD-1, mouse, iv, 5 mg/kg
Property: AUC(0-t) (µM·h)
The reply should contain only the number, in µM·h.

Incoming: // AUC(0-t) lookup, key: CC(=O)NCc1ccc(Oc2ccc(S(=O)(=O)CC3CS3)cc2)cc1 (centres unmarked)
Outgoing: 7.25

Lab note: next compound to report on.
Incoming: // AUC(0-t) lookup, key: NCc1nc(-c2ccc(Oc3ccc(S(=O)(=O)CC4CS4)cc3)cc2)no1 (centres unmarked)
Outgoing: 13

----------
test: Pharmacokinetics and brain distribution after single iv dose; settings: male, CD-1, mouse, in vivo, iv, 5 mg/kg
Where a name gives a salt, the structure may show the parent alone.
Recorded Kp for the following compounds
Lab note: jot down the number only; don't add units.

Incoming: // Kp lookup, key: N=C(N)Nc1ccc(Oc2ccc(S(=O)(=O)CC3CS3)cc2)cc1 (stereo not drawn) [Compound 7, HCl salt]
Outgoing: 0.136

Incoming: // Kp lookup, key: NCc1ccc(Oc2ccc(S(=O)(=O)CC3CS3)cc2)cc1 (stereo not drawn) [Compound 5, HCl salt]
Outgoing: 0.793

Lab note: next compound to report on.
Incoming: // Kp lookup, key: CC(=O)NCc1ccc(Oc2ccc(S(=O)(=O)CC3CS3)cc2)cc1 (stereo not drawn)
Outgoing: 0.154

----------
biological target: MMP-9 (Homo sapiens (Human), UniProt P14780); experiment: Enzyme inhibition studies, MMP-9 catalytic domain; type: biochemical; settings: catalytic domain; slow-binding; Ki from koff/kon; read-out: Ki
Sequence (P14780 107-444): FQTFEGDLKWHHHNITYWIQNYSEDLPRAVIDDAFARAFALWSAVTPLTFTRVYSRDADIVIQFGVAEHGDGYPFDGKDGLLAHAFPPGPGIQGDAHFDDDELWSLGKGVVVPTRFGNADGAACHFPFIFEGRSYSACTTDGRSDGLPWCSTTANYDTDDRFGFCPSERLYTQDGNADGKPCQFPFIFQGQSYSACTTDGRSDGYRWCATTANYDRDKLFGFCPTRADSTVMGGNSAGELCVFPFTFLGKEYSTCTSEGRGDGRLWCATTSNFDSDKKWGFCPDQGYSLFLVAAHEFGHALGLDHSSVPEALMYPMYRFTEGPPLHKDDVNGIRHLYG
Property: pKi
Please treat pKi as minus the base-10 logarithm of the molar concentration.

Incoming: // pKi lookup, key: NCc1nc(-c2ccc(Oc3ccc(S(=O)(=O)CC4CS4)cc3)cc2)no1 (stereo not shown)
Outgoing: 4.47

----------
molecular target: MMP-2 (Homo sapiens (Human)); assay: Enzyme inhibition studies, MMP-2; format: biochemical; settings: Ki, slow-binding; Ki calculated from koff/kon
Sequence (P08253 110-660): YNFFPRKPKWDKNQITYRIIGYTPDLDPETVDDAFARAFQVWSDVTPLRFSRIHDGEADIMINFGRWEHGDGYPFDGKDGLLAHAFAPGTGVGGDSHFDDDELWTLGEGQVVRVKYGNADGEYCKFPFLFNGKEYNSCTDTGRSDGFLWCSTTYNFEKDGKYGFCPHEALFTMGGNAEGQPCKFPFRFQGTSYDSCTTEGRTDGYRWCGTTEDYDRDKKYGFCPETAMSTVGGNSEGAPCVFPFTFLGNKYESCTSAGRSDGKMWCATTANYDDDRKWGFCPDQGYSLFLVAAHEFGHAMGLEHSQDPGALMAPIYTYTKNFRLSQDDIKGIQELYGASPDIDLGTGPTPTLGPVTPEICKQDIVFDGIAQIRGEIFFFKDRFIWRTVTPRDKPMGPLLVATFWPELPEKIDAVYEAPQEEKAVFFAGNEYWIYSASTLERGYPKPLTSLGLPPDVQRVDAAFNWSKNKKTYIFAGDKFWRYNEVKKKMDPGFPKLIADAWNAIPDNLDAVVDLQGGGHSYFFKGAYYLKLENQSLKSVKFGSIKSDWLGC
Counter-ions that a name gives are not always drawn.
Property: pKi
Please treat pKi as minus the base-10 logarithm of the molar concentration.

Incoming: // pKi lookup, key: NCc1ccc(Oc2ccc(S(=O)(=O)CC3CS3)cc2)cc1 (stereo not shown) [Compound 5, HCl salt]
Outgoing: 7.07

----------
test: Pharmacokinetics and brain distribution after single iv dose; details: male, CD-1, mouse, in vivo, iv, 5 mg/kg
Counter-ions that a name gives are not always drawn.
Recorded AUC(0-inf) for the following compounds
The reply should contain only the number, in µM·h.

Incoming: // AUC(0-inf) lookup, key: N=C(N)Nc1ccc(Oc2ccc(S(=O)(=O)CC3CS3)cc2)cc1 (centres unmarked) [Compound 7, HCl salt]
Outgoing: 2.13

More entries:
Incoming: // AUC(0-inf) lookup, key: NCc1ccc(Oc2ccc(S(=O)(=O)CC3CS3)cc2)cc1 (centres unmarked) [Compound 5, HCl salt]
Outgoing: 1.23

----------
experiment: Pharmacokinetics and brain distribution after single iv dose; conditions: 60 min after 5 mg/kg single iv, mice
Structures can show the parent of a compound that is named as a salt.
Recorded Brain concentration for the following compounds
The reply should contain only the number, in pmol/mg tissue.

Incoming: // Brain concentration lookup, key: N=C(N)Nc1ccc(Oc2ccc(S(=O)(=O)CC3CS3)cc2)cc1 (stereo not shown) [Compound 7, HCl salt]
Outgoing: 0.0228

Incoming: // Brain concentration lookup, key: CC(=O)NCc1ccc(Oc2ccc(S(=O)(=O)CC3CS3)cc2)cc1 (stereo not shown) [Compound 6]
Outgoing: 0.0544

Incoming: // Brain concentration lookup, key: NCc1nc(-c2ccc(Oc3ccc(S(=O)(=O)CC4CS4)cc3)cc2)no1 (stereo not shown) [Compound 4]
Outgoing: 0.0253

More entries:
Incoming: // Brain concentration lookup, key: NCc1ccc(Oc2ccc(S(=O)(=O)CC3CS3)cc2)cc1 (stereo not shown) [Compound 5, HCl salt]
Outgoing: 0.0368
